Reference for the values: patent US20240317791A1

We begin with a simple list: items and their reported MIC.
- System: Candida auris
- Assay procedure: MIC determination against clinical isolates of Candida auris (CLSI M27, 4th edition)
- Format: cell-based
- Condition notes: Candidozyma auris, strain IV.11 (No 8), clade IV/Israel; read-out: MIC values
Only the number, expressed in µg/mL, is required.

Need MIC of C[C@@H]1[C@H](O)[C@@H](C)/C=C/C=C/C=C/C=C/C=C/C=C/C=C/[C@H](O[C@@H]2O[C@H](C)[C@@H](O)[C@H](N)[C@@H]2O)C[C@@H]2O[C@](O)(C[C@@H](O)C[C@@H](O)[C@H](O)CC[C@@H](O)C[C@@H](O)CC(=O)O[C@H]1C)C[C@H](O)[C@H]2C(=O)O [Amphotericin B] , thanks.
0.5

---

MIC values for the compounds below.
- Test system: Candida auris
- Assay procedure: MIC determination against clinical isolates of Candida auris (CLSI M27, 4th edition)
- Format: cell-based
- Condition notes: Candidozyma auris, strain IV.10 (No 7), clade IV/Israel; read-out: MIC values
Entry rule: numbers only, all in µg/mL.

The examples below pair each entry with its known result.
OC(Cn1cncn1)(Cn1cncn1)c1ccc(F)cc1F :: 32
C[C@@H]1[C@H](O)[C@@H](C)/C=C/C=C/C=C/C=C/C=C/C=C/C=C/[C@H](O[C@@H]2O[C@H](C)[C@@H](O)[C@H](N)[C@@H]2O)C[C@@H]2O[C@](O)(C[C@@H](O)C[C@@H](O)[C@H](O)CC[C@@H](O)C[C@@H](O)CC(=O)O[C@H]1C)C[C@H](O)[C@H]2C(=O)O :: 0.25

Endpoint output: MIC of C[C@@H](c1ncncc1F)[C@](O)(Cn1cncn1)c1ccc(F)cc1F . Value?
0.5

GET /values?readout=MIC&item= CNc1ccc(C(=O)CC(O)CC[C@H](C)C2OC(=O)C[C@H](O)CC(=O)C[C@H](O)C[C@H](O)C[C@H](O)C[C@H](O)C[C@]3(O)C[C@H](O)[C@@H](C(=O)NCCN(C)C)C(C[C@@H](OC4OC(C)C(O)C(NC(=O)CN(C)C)C4O)/C=C/C=C/C=C/C=C\C=C/C=C/C=C/[C@@H]2C)O3)cc1 (stereo partly shown) [Amcipatricin diascorbate]
2

---

- Tested on: Candida auris
- Assay procedure: MIC determination against clinical isolates of Candida auris (CLSI M27, 4th edition)
- Type: cell-based
- Condition notes: Candidozyma auris, strain II.2 (No 1), clade II/India; read-out: MIC values
- Source text: MIC: Minimum Inhibitory Concentration (MIC) is defined as the lowest concentration of an antimicrobial ingredient that is bacteriostatic. Testing has been performed in triplicates for each isolate.
Measured MIC accompanies every entry in the list below.
All answers are understood in µg/mL, so give the number only.

C[C@@H](c1ncncc1F)[C@](O)(Cn1cncn1)c1ccc(F)cc1F [Voriconazole] :: 1
CNc1ccc(C(=O)CC(O)CC[C@H](C)C2OC(=O)C[C@H](O)CC(=O)C[C@H](O)C[C@H](O)C[C@H](O)C[C@H](O)C[C@]3(O)C[C@H](O)[C@@H](C(=O)NCCN(C)C)C(C[C@@H](OC4OC(C)C(O)C(NC(=O)CN(C)C)C4O)/C=C/C=C/C=C/C=C\C=C/C=C/C=C/[C@@H]2C)O3)cc1 (stereo partly shown) [Amcipatricin diascorbate] :: 2
OC(Cn1cncn1)(Cn1cncn1)c1ccc(F)cc1F [Fluconazole] :: 32

# evaluate next
Please give the measured MIC for this molecule: C[C@@H]1[C@H](O)[C@@H](C)/C=C/C=C/C=C/C=C/C=C/C=C/C=C/[C@H](O[C@@H]2O[C@H](C)[C@@H](O)[C@H](N)[C@@H]2O)C[C@@H]2O[C@](O)(C[C@@H](O)C[C@@H](O)[C@H](O)CC[C@@H](O)C[C@@H](O)CC(=O)O[C@H]1C)C[C@H](O)[C@H]2C(=O)O [Amphotericin B]
0.25
